Tested on: arrhythmia in guinea-pigs after infusion of ouabain
Assay: Ouabain-induced arrhythmia in guinea-pigs
Conditions: 6 mg/kg iv; ouabain 20 μg/kg/min.
Property Measured: Ouabain dose ± SE, inducing arrhythmia (µg/kg)
Please reply with the bare figure in µg/kg and do not write the unit itself.

Previously resolved entries follow.
CC(C)NS(=O)(=O)CCN1C(=O)c2ccccc2C1=O :: 155
CNS(=O)(=O)CCN1C(=O)c2ccccc2C1=O [2-Phthalimidoethanesulfone methylamide] :: 188
CCNS(=O)(=O)CCN1C(=O)c2ccccc2C1=O [2-Phthalimidoethanesulfone ethylamide] :: 150

-- ask Field request: Ouabain dose ± SE, inducing arrhythmia | item: CCCCNS(=O)(=O)CCN1C(=O)c2ccccc2C1=O [2-Phthalimidoethanesulfone n-butylamide]
-- reply 200

-- ask Field request: Ouabain dose ± SE, inducing arrhythmia | item: CC(=O)NS(=O)(=O)CCN1C(=O)c2ccccc2C1=O [2-Phthalimidoethanesulfonyl acetamide, 2-phthalimidoethanesulfonyl acetamide]
-- reply 212

-- ask Field request: Ouabain dose ± SE, inducing arrhythmia | item: CC(C)NCC(O)COc1cccc2ccccc12 (stereo not drawn) [Propranolol, reference compound]
-- reply 269

----------
Tested on: convulsions induced by electrical stimulation (maximal electroshock)
Experiment: Maximal electroshock test (MES), 50 mA electrical stimulation
Format: in vivo, mice
Details: Mus musculus, ip, mice, maximal electroshock test; read-out: Anticonvulsive activity ED50, MES
Reported ED50 is given for each of the following compounds.

Previously resolved entries follow.
CC(C)(C)NS(=O)(=O)CCN1C(=O)c2ccccc2C1=O :: > 300 mg/kg
CC(=O)NS(=O)(=O)CCN1C(=O)c2ccccc2C1=O [2-Phthalimidoethanesulfonyl acetamide, 2-phthalimidoethanesulfonyl acetamide] :: > 300 mg/kg

-- ask Field request: ED50 | item: O=C1c2ccccc2C(=O)N1CCS(=O)(=O)N1CCCC1 [2-Phthalimidoethanesulfone pyrrolidide]
-- reply > 300 mg/kg

These measurements were taken from patent US4556673A.
